protocol.text: Hepatocyte Stability Assay, mouse hepatocytes
Type: in vitro ADME
measurement.setup: mouse hepatocytes, 120 min
value.kind: Hepatocyte Stability Mouse % rem. 120 min

molecule: CNC(=O)COc1cnc(N[C@H]2CC[C@@H](Oc3nc(N4CCOCC4)cc4ncccc34)CC2)nc1
experimental.value: G (% remaining = 50-75%)

molecule: CS(=O)(=O)c1cnc2cc(N3CCOCC3)nc(O[C@H]3CC[C@@H](Nc4ncccn4)CC3)c2c1 [Compound 200b]
experimental.value: G (% remaining = 50-75%)

molecule: CS(=O)(=O)c1cnc2cc(N3CCOCC3)nc(O[C@H]3CC[C@@H](Nc4ncnc5ccoc45)CC3)c2c1 [Compound 204b]
experimental.value: G (% remaining = 50-75%)
